B1: E3 ubiquitin-protein ligase Midline-1, residues 172 to 214; numbered along this chain, O15344 (parent)
chain: GLMCLEHEDEKVNMYCVTDDQLICALCKLVGRHRDHQVAALSE

variants of: B1; assay: abundance fitness (aPCA) (normalised: wild type 0, dead -1); higher = more abundant; growth selection in yeast, the domain comes from the species named; settings: Homo sapiens
propertyMeasured: abundance fitness

>>> reading("E8C")
0.16
>>> reading("R34V")
-0.069
>>> reading("Q21I")
-0.133
>>> reading("H7K")
-0.604
>>> reading("R34G")
0.048
>>> reading("H7R")
-0.646
>>> reading("C24K")
-0.885
>>> reading("M3K")
-0.006
>>> reading("V17Y")
-0.071
>>> reading("D35L")
-0.172
>>> reading("Q21G")
-0.133
>>> reading("V17Q")
0.275
>>> reading("V17S")
0.174
>>> reading("V12E")
-0.122
>>> reading("E43L")
-0.241
>>> reading("R32W")
-0.323
>>> reading("R34D")
-0.169
>>> reading("V17L")
-0.094
>>> reading("A25Q")
0.087
>>> reading("R32G")
0.061
>>> reading("L2E")
0.611
>>> reading("C4Y")
-0.594
>>> reading("V38D")
-0.131
>>> reading("L5V")
-0.165
>>> reading("C24G")
-0.814
>>> reading("D20T")
-0.232
>>> reading("Q37P")
-0.015
>>> reading("E6L")
-0.14
>>> reading("L5P")
0.058
>>> reading("K11N")
0.027
